Biological target: Human M4 receptors (Homo sapiens)
Construct: expressed in transfected cells
Assay: M4 PAM cAMP assay (GloSensor)
Type: cell-based
Conditions: HEK293 GloSensor cells expressing hM4; with EC20 acetylcholine and isoproterenol; geometric mean of 2-4 determinations unless footnoted (b: >=5, c: single)
Listing: pEC50 of selected molecules
The quantity pEC50 is defined as the negative base-10 logarithm of the molar concentration.

Use these answered entries as a reference point.
MOLECULE	SYSTEM_UNDER_TEST	READOUT	ENDPOINT_RESULT
CNc1nc(C)c(C)c2c1CN(C(=O)OC1Cc3cccnc3C1)C2 (stereo not shown)	Human M4 receptors (Homo sapiens)	pEC50	7.30
CNc1nc(C)c(C)c2c1CN(C(=O)CC1CN(c3nncs3)C1)C2	Human M4 receptors (Homo sapiens)	pEC50	8.46
Cc1c2c(c(=O)n(C)c1C)CN(C(=O)CC1CN(c3cccnc3)C1)C2	Human M4 receptors (Homo sapiens)	pEC50	8.06

Please examine the following record next.
IN: Consider the molecule shown here: CNc1nc(C)c(C)c2c1CN(C(=O)[C@@H]1CCOC1)C2 What is its recorded pEC50?
OUT: 6.83

====

Molecular target: Human M4 receptors (Homo sapiens)
Construct: expressed in transfected cells
Test: M4 PAM cAMP assay (GloSensor)
Format: cell-based
Settings: HEK293 GloSensor cells expressing hM4; with EC20 acetylcholine and isoproterenol; Emax = maximum asymptote of fitted dose response curve; geometric mean of 2-4 determinations unless footnoted (b: >=5, c: single)
READOUT: EC50 Mean Asymptote Maximum (%)

COMPOUND	EC50 Mean Asymptote Maximum (%)
CNc1nc(C)c(C)c2c1CN(C(=O)CC1CN(c3ccnc(OC(F)F)c3)C1)C2C (single isomer, unassigned) [Example 49]	140^c %
CNc1nc(C)c(C)c2c1CN(C(=O)CC1CN(c3ccnc(OC(F)F)c3)C1)C2C (single isomer, unassigned) [Example 50]	104^c %

Please examine the following record next.
IN: Consider the compound shown here: CNc1nc(C)c(C)c2c1CN(C(=O)C[C@@H]1C[C@H]1c1ccc(F)nc1)C2 (single isomer, unassigned) [Example 15] What is its recorded EC50 Mean Asymptote Maximum (%)?
OUT: 148%

====

Target: Human M4 receptors (Homo sapiens)
Experiment: M4 PAM cAMP assay (GloSensor)
Details: HEK293 GloSensor cells expressing hM4; with EC20 acetylcholine and isoproterenol; geometric mean of 2-4 determinations unless footnoted (b: >=5, c: single)
READOUT: pEC50
The quantity pEC50 is defined as the negative base-10 logarithm of the molar concentration.

COMPOUND	SYSTEM_UNDER_TEST	ENDPOINT_RESULT
CNc1nc(C)c(C)c2c1CN(C(=O)CC1CN(c3ccnc(OC(F)F)c3)C1)C2C (single isomer, unassigned) [Example 50]	Human M4 receptors (Homo sapiens)	8.01
CNc1nc(C)c(C)c2c1CN(C(=O)CC1CN(c3ccncn3)C1)C2	Human M4 receptors (Homo sapiens)	8.84

IN: Consider the compound shown here: CNc1nc(C)c(C)c2c1CN(C(=O)CC1CN(c3cccnc3)C1)C2 What is its recorded pEC50?
OUT: 8.75

IN: Consider the compound shown here: CNc1nc(C)c(C)c2c1CN(C(=O)CCc1cn[nH]c1)C2 What is its recorded pEC50?
OUT: 7.86

====

Molecular target: Human M4 receptors (Homo sapiens, UniProt P08173)
Sequence (P08173 whole entry): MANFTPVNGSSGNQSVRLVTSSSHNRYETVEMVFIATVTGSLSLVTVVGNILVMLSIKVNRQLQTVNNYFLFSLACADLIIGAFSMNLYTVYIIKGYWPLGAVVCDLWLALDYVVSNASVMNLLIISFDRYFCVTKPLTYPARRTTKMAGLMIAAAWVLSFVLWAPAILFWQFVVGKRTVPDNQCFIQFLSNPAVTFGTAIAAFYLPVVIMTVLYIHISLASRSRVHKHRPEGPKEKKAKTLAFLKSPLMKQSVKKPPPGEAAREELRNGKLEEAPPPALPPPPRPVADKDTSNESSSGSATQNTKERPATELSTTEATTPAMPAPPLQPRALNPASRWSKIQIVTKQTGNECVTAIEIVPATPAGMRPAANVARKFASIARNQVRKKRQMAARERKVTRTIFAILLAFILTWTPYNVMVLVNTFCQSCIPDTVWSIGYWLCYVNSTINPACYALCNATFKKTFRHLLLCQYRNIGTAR
Assay: M4 PAM cAMP assay (GloSensor)
Conditions: HEK293 GloSensor cells expressing hM4; with EC20 acetylcholine and isoproterenol; geometric mean of 2-4 determinations unless footnoted (b: >=5, c: single)
Listing: EC50 of selected molecules
Write the answer as a number in µM, unit excluded.

MOLECULE	READOUT	ENDPOINT_RESULT
COc1nc(C)c(C)c2c1CN(C(=O)CC1CN(c3cncnc3)C1)C2 [Example 55]	EC50	0.0787
CNc1nc(C)c(C)c2c1CN(C(=O)CC1Cc3ccccc3C1)C2 [Example 24]	EC50	0.00727
CNc1nc(C)c(C)c2c1CN(C(=O)C[C@@H]1C[C@H]1c1cccnc1)C2 (single isomer, unassigned) [Example 11]	EC50	0.0016

IN: Fill in the recorded EC50 for this molecule, with Human M4 receptors (Homo sapiens, UniProt P08173) as test system: Cc1nc(C(F)F)c2c(c1C)CN(C(=O)CC1CN(c3ccnc(C(F)F)c3)C1)C2 [Example 39]
OUT: 0.032
